# test description: Zibotentan and dapagliflozin blood concentrations, Experiment 2
# protocol conditions: male, Wistar, rat, in vivo, 100 mg/kg, Zibotentan blood concentration, Exp 2; Zibo 100 mg/kg p.o. QD; 4 hr post first dose
readout: concentration at 4 h (µM)
Dear colleague, please return just the value in µM, with no unit written.

Problem: Requested read-out: concentration at 4 h. Entry: COc1nc(C)cnc1NS(=O)(=O)c1cccnc1-c1ccc(-c2nnco2)cc1 [Zibo]
Solution: 161

---

# test description: Zibotentan blood concentrations, Experiment 1
# Type: in vivo, male Wistar rats
# protocol conditions: male, Wistar, rat, whole blood, oral, 30 mg/kg, Exp 1; Zibo 30 mg/kg p.o. QD 14 days; 24 hr post last dose
readout: concentration at 24 h (µM)
Dear colleague, please return just the value in µM, with no unit written.

Problem: Requested read-out: concentration at 24 h. Entry: `COc1nc(C)cnc1NS(=O)(=O)c1cccnc1-c1ccc(-c2nnco2)cc1`
Solution: 7.39

---

# test description: Zibotentan and dapagliflozin blood concentrations, Experiment 2
# protocol conditions: male, Wistar, rat, whole blood, oral, 3 mg/kg, Dapagliflozin blood concentration, Exp 2; Dapa 3 mg/kg p.o. QD; 4 hr post first dose
readout: concentration at 4 h (nM)
Dear colleague, please return just the value in nM, with no unit written.

Problem: Requested read-out: concentration at 4 h. Entry: `CCOc1ccc(Cc2cc([C@@H]3O[C@H](CO)[C@@H](O)[C@H](O)[C@H]3O)ccc2Cl)cc1`
Solution: 1940

---

# test description: Zibotentan blood concentrations, Experiment 1
# Assay type: in vivo, male Wistar rats
# protocol conditions: male, Wistar, rat, whole blood, oral, 300 mg/kg, Exp 1; Zibo 300 mg/kg p.o. QD; 24 hr post first dose
readout: concentration at 24 h (µM)
Dear colleague, please return just the value in µM, with no unit written.

Problem: Requested read-out: concentration at 24 h. Entry: `COc1nc(C)cnc1NS(=O)(=O)c1cccnc1-c1ccc(-c2nnco2)cc1`
Solution: 176

---

# test description: Zibotentan blood concentrations, Experiment 1
# Assay type: in vivo, male Wistar rats
# protocol conditions: male, Wistar, rat, whole blood, oral, 30 mg/kg, Exp 1; Zibo 30 mg/kg p.o. QD; 24 hr post first dose
readout: concentration at 24 h (µM)
Dear colleague, please return just the value in µM, with no unit written.

Problem: Requested read-out: concentration at 24 h. Entry: `COc1nc(C)cnc1NS(=O)(=O)c1cccnc1-c1ccc(-c2nnco2)cc1`
Solution: 4.68

---

# test description: Zibotentan blood concentrations, Experiment 1
# Type: in vivo, male Wistar rats
# protocol conditions: male, Wistar, rat, whole blood, oral, 100 mg/kg, Exp 1; Zibo 100 mg/kg p.o. QD 14 days; 24 hr post last dose
readout: concentration at 24 h (µM)
Dear colleague, please return just the value in µM, with no unit written.

Problem: Requested read-out: concentration at 24 h. Entry: COc1nc(C)cnc1NS(=O)(=O)c1cccnc1-c1ccc(-c2nnco2)cc1 [Zibo]
Solution: 39

---

# test description: Zibotentan and dapagliflozin blood concentrations, Experiment 2
# protocol conditions: male, Wistar, rat, in vivo, 100 mg/kg, Zibotentan blood concentration, Exp 2; Zibo 100 mg/kg p.o. QD; 24 hr post first dose
readout: concentration at 24 h

Problem: Requested read-out: concentration at 24 h. Entry: `COc1nc(C)cnc1NS(=O)(=O)c1cccnc1-c1ccc(-c2nnco2)cc1`
Solution: 63.9 µM
